Test system: U251 glioblastoma
compounds and their reported GI50

Study these solved cases before continuing.
CC(=O)O/N=C1/C(c2c(O)[nH]c3cc(Br)ccc23)=Nc2ccccc21 = 1.08 µM
c1cn2cc(-c3ccc4cn[nH]c4c3)nc(Nc3ccc(N4CCOCC4)cc3)c2n1 = 9.72 µM
Cc1cc(Nc2ncnc3ccc(NC4=NC(C)(C)CO4)cc23)ccc1Oc1ccn2ncnc2c1 = 15.9 µM
O=C(Cc1cccc(OC(F)(F)F)c1)Nc1ccc(CCCCc2nnc(NC(=O)Cc3ccccn3)s2)nn1 = 0.0338 µM

Req: # lookup: GI50 of `Cn1cc(-c2cnc3ccc4ccc(CS(=O)(=O)NCc5ccccn5)cc4c(=O)c3c2)cn1`
Resp: 21.2 µM

====

System: NCI/ADR-RES ovarian
Assay: NCI tumour cell line growth inhibition, 384-well format
molecules and their reported GI50

C=CC(=O)N[C@H]1CCOC[C@H]1Nc1ncc2cc(-c3c(Cl)c(OC)cc(OC)c3Cl)ccc2n1 = 12.9 µM
CC(=O)O/N=C1/C(c2c(O)[nH]c3cc(Br)ccc23)=Nc2ccccc21 = 1.24 µM
Cn1cc(-c2cnc3ccc4ccc(CS(=O)(=O)NCc5ccccn5)cc4c(=O)c3c2)cn1 = 16.2 µM

Req: # lookup: GI50 of `c1cn2cc(-c3ccc4cn[nH]c4c3)nc(Nc3ccc(N4CCOCC4)cc3)c2n1`
Resp: 11.7 µM

====

Test system: SF-295 CNS
Assay: NCI tumour cell line growth inhibition, 384-well format
measured_quantity: GI50

Study these solved cases before continuing.
c1cn2cc(-c3ccc4cn[nH]c4c3)nc(Nc3ccc(N4CCOCC4)cc3)c2n1 = 13.7 µM
Cn1cc(-c2cnc3ccc4ccc(CS(=O)(=O)NCc5ccccn5)cc4c(=O)c3c2)cn1 = 13.3 µM
CC(=O)O/N=C1/C(c2c(O)[nH]c3cc(Br)ccc23)=Nc2ccccc21 = 1 µM

Req: # lookup: GI50 of `O=C(Cc1cccc(OC(F)(F)F)c1)Nc1ccc(CCCCc2nnc(NC(=O)Cc3ccccn3)s2)nn1`
Resp: 5.17 µM

====

System: OVCAR-3 ovarian
Experiment: NCI tumour cell line growth inhibition, 384-well format; in the data active = GI50 below about 0.43 µM; inactive = the rest
Parameter call: string, one of active, inactive

// known answers, use as guide
C=CC(=O)N[C@H]1CCOC[C@H]1Nc1ncc2cc(-c3c(Cl)c(OC)cc(OC)c3Cl)ccc2n1 = inactive
Cc1cc(Nc2ncnc3ccc(NC4=NC(C)(C)CO4)cc23)ccc1Oc1ccn2ncnc2c1 = inactive
CC(=O)O/N=C1/C(c2c(O)[nH]c3cc(Br)ccc23)=Nc2ccccc21 = active

Okay, now this compound:
Req: Query: recorded result category for `c1cn2cc(-c3ccc4cn[nH]c4c3)nc(Nc3ccc(N4CCOCC4)cc3)c2n1` in this test
Resp: inactive

====

compounds and their reported GI50
Test system: SK-MEL-28 melanoma
Experiment: NCI tumour cell line growth inhibition, 384-well format

Study these solved cases before continuing.
O=C(Cc1cccc(OC(F)(F)F)c1)Nc1ccc(CCCCc2nnc(NC(=O)Cc3ccccn3)s2)nn1 = 30.8 µM
c1cn2cc(-c3ccc4cn[nH]c4c3)nc(Nc3ccc(N4CCOCC4)cc3)c2n1 = 12.4 µM
Cc1cc(Nc2ncnc3ccc(NC4=NC(C)(C)CO4)cc23)ccc1Oc1ccn2ncnc2c1 = 8.21 µM

Please examine the following record next.
Req: # lookup: GI50 of `CC(=O)O/N=C1/C(c2c(O)[nH]c3cc(Br)ccc23)=Nc2ccccc21`
Resp: 1.67 µM
